Biological target: nicotinic receptor (Rattus norvegicus, UniProt P09483+P12390)
Sequence (P12390 25-500): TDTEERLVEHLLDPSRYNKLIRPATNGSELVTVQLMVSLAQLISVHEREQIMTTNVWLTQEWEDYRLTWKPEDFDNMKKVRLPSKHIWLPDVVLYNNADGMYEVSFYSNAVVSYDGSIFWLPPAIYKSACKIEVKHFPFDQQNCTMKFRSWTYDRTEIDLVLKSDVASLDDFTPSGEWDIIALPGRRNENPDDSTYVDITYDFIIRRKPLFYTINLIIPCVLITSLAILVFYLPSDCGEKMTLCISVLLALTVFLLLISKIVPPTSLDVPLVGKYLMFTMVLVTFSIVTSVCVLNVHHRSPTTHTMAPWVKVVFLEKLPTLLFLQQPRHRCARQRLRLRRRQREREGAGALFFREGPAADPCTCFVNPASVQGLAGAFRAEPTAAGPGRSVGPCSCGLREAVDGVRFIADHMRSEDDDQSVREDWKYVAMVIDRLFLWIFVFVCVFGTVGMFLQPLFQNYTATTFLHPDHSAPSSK
Sequence (P09483 31-630): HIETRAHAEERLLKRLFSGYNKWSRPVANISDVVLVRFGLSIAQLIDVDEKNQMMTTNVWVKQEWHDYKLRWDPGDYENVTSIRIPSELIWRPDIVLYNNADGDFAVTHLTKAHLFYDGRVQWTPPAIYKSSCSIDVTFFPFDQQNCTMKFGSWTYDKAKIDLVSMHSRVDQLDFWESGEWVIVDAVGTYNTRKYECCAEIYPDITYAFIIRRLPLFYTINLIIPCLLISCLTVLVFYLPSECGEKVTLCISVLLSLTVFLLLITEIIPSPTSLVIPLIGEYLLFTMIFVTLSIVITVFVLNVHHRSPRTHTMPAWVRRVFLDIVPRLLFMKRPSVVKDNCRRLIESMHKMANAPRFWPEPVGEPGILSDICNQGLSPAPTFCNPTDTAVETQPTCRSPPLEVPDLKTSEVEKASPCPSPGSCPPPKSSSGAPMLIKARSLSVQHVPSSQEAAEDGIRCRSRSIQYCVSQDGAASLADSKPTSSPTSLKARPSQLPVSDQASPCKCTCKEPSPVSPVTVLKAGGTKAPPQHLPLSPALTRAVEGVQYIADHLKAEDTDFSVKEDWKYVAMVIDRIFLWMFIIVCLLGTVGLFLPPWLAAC
Assay: biochemical
endpointName: pIC50
// pIC50: -log10(molar conc.)

# value of pIC50, nicotinic receptor (Rattus norvegicus, UniProt P09483+P12390), item C[N+](C)(C)CCOC(N)=O = 6.16

* * *

Conditions: mouse, in vivo
endpointName: comparative drug toxicity

C[n+]1cccc(O)c1C=NOCc1ccccc1    1b>1c

// C[n+]1ccccc1C=NOCc1ccccc1 : comparative drug toxicity value = 1a>1b

* * *

Assay: in vivo
Conditions: mouse, po
endpointName: LD50 at 24 h

// CON=Cc1c(O)ccc[n+]1C : LD50 at 24 h value = > 3200 µmol/kg
